- system_name: human opioid receptor-like receptor (ORL-1) (Homo sapiens)
- experiment: Nociceptin affinity at the ORL1 receptor ([35S]GTPgS binding, membranes from recombinant HEK-293 cells)
- condition_notes: ORL-1 membranes from recombinant HEK-293 cells; GraphPad PRISM curve fitting; read-out: Nociceptin Affinity calc Ki
- Method: Nociceptin affinity at the ORL1 receptor for preferred compounds was obtained using the following assay: […] Functional SGTPgS binding assays were conducted as follows. […] Fifty ml/well scintillation cocktail (BetaScint; Wallac) was added and plates were counted in a Packard Top-Count for 1 min/well. Data was analyzed using the curve fitting functions in GraphPad PRISMÔ, v.
pKi: −log10 of the molar value.
Label scheme for pKi: lower than 6 is f, 6 and above is t.

Sample answers from the record:
> print(dat)
                                   molecule                               system.name  answer.label
1  C1=CC2(CCN(Cc3ccc(OCc4ccccc4)cc3)CC2)c2ccccc21  human opioid receptor-like receptor (ORL-1) (Homo sapiens)             f
2  c1ccc2c(c1)CCc1ccccc1C2N1CCC2(CCc3ccccc32)CC1  human opioid receptor-like receptor (ORL-1) (Homo sapiens)             f
3   c1ccc2c(c1)CCC21CCN(Cc2ccc3ccccc3c2)CC1  human opioid receptor-like receptor (ORL-1) (Homo sapiens)             t
4  CC1(C)COC2(CCC(N3CCC4(CCc5ccccc54)CC3)CC2)OC1  human opioid receptor-like receptor (ORL-1) (Homo sapiens)             f
5        c1ccc2c(c1)CCC21CCN(C2CCCCCCC2)CC1  human opioid receptor-like receptor (ORL-1) (Homo sapiens)             t

Could you tell me if the measured pKi of CCCC1CCC(N2CCC3(CCc4ccccc43)CC2)CC1 (stereo not drawn) reaches 6 or more?
f

Could you tell me if the measured pKi of "O=C1Cc2ccccc2C12CCN(Cc1ccc3ccccc3c1)CC2" reaches 6 or more?
t

----------
The listing below reports Ki for compounds tested on Mu opioid receptor (Homo sapiens, UniProt P35372).
Sequence (P35372 whole entry, species assumed): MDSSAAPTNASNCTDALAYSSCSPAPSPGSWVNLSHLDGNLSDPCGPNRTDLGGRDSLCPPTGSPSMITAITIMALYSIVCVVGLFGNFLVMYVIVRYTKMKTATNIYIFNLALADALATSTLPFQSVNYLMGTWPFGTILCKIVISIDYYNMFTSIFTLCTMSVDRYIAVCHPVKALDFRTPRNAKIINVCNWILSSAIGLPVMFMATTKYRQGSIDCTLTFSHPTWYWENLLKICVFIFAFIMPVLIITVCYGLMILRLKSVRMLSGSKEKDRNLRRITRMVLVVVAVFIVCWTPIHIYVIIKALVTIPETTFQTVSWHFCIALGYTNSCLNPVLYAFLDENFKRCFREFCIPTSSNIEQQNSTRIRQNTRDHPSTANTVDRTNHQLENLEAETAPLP
One number for each entry, in nM.

Before answering, review these 3 worked examples.
> print(dat)
                                  compound  metric  unit.label  assay.result
1  c1ccc2c(c1)CCC21CCN(Cc2cccc3ccccc23)CC1      Ki          nM          1120
2      C1=CC2(CCN(C3CCCCCCC3)CC2)c2ccccc21      Ki          nM          2040
3  c1ccc2c(c1)CCC21CCN(Cc2ccc3ccccc3c2)CC1      Ki          nM           593

Please give the documented Ki of CC(C)C1CCC(N2CCC3(CCc4ccccc43)CC2)CC1 (stereo not shown)
939

----------
For each record, write down the corresponding Ki.
- system_name: human opioid receptor-like receptor (ORL-1) (Homo sapiens, UniProt P41146)
- Sequence (P41146 whole entry): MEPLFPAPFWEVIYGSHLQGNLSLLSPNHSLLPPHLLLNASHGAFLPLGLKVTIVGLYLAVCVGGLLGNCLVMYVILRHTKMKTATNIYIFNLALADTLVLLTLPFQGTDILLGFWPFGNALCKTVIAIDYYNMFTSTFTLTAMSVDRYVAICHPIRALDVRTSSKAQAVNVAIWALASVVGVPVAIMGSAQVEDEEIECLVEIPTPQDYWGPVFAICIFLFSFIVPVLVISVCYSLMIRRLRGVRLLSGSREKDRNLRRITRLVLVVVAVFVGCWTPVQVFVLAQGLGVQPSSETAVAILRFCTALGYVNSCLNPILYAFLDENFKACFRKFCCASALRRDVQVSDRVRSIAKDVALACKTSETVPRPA
- experiment: Nociceptin affinity at the ORL1 receptor ([35S]GTPgS binding, membranes from recombinant HEK-293 cells)
- condition_notes: ORL-1 membranes from recombinant HEK-293 cells; GraphPad PRISM curve fitting; read-out: Nociceptin Affinity calc Ki
Answers are plain numbers, in nM.

Before answering, review these 3 worked examples.
> print(dat)
                                   compound                               system.name  assay.result
1  C1=CC2(CCN(C3CCC4CCCCC4C3)CC2)c2ccccc21 (centres unmarked)  human opioid receptor-like receptor (ORL-1) (Homo sapiens, UniProt P41146)          1290
2  c1ccc(CN2CCC3(CCc4ccccc43)CC2)cc1 [1-(benzyl)-spiro[piperidine-4,1′-indane]]  human opioid receptor-like receptor (ORL-1) (Homo sapiens, UniProt P41146)           879
3  C1=CC2(CCN(Cc3ccc4ccccc4c3)CC2)c2ccccc21  human opioid receptor-like receptor (ORL-1) (Homo sapiens, UniProt P41146)            36

Give me Ki for each of these compounds, listed below.
1. c1ccc2c(c1)CCC21CCN(C2CC3CCC2C3)CC1 (centres unmarked)
2. C1=CC2(CCN(C3CCCCCCC3)CC2)c2ccccc21
3. c1ccc(CCN2CCC3(CCc4ccccc43)CC2)cc1

7210
500
921

Give me Ki for each of these compounds, listed below.
1. CC(C)CCC(C)N1CCC2(C=Cc3ccccc32)CC1 (centres unmarked)
2. CC(C)CCC(C)N1CCC2(CCc3ccccc32)CC1 (centres unmarked)
3. CC(C)C1CCC(N2CCC3(CCc4ccccc43)CC2)CC1 (centres unmarked)
4. C1=CC2(CCN(CCC(c3ccccc3)c3ccccc3)CC2)c2ccccc21
5. C1=CC2(CCN(C3CCc4ccccc4C3)CC2)c2ccccc21 (centres unmarked)
6. c1ccc2cc(CN3CCC4(CCC5CCCCC54)CC3)ccc2c1 (centres unmarked)

355
676
500
42
1200
306

----------
For each record, write down the corresponding pKi.
- system_name: human opioid receptor-like receptor (ORL-1) (Homo sapiens)
- experiment: Nociceptin affinity at the ORL1 receptor ([35S]GTPgS binding, membranes from recombinant HEK-293 cells)
- condition_notes: ORL-1 membranes from recombinant HEK-293 cells; GraphPad PRISM curve fitting; read-out: Nociceptin Affinity calc Ki
Give bare numbers, as −log10 of the molar value.

Before answering, review these 5 worked examples.
> print(dat)
                                   compound  assay.result
1      N#Cc1ccc(CN2CCC3(CCc4ccccc43)CC2)cc1          5.82
2  c1ccc(COc2ccc(CN3CCC4(CCc5ccccc54)CC3)cc2)cc1          6.06
3  c1ccc(-c2ccc(CN3CCC4(CCc5ccccc54)CC3)cc2)cc1          5.92
4  C1=CC2(CCN(C3CC4CCC3C4)CC2)c2ccccc21 (centres unmarked)          5.19
5       c1ccc2c(c1)CCC21CCN(CC2CCCCCCC2)CC1          6.81

Give me pKi for each of these compounds, listed below.
1. c1ccc2c(c1)CCC21CCN(C2C3CCC2CC3)CC1 (centres unmarked)
2. C1=CC2(CCN(C3Cc4ccccc4C3)CC2)c2ccccc21
3. O=C1CC2(CCN(Cc3ccc4ccccc4c3)CC2)c2ccccc21
4. c1ccc2c(c1)CCC21CCN(C2CCC3CCCCC3C2)CC1 (centres unmarked)
5. C1=CC2(CCN(C3CCCCCCCCC3)CC2)c2ccccc21
6. CC(C)C1CCC(N2CCC3(C=Cc4ccccc43)CC2)CC1 (centres unmarked)
7. C1=CC2(CCN(CC3CCCCCCC3)CC2)c2ccccc21
8. c1ccc2c(c1)CCC21CCN(Cc2cccc3ccccc23)CC1

1: 6.04; 2: 5.07; 3: 6.38; 4: 5.50; 5: 6.37; 6: 6.53; 7: 6.51; 8: 6.84

Taken from patent US6828440B2.
